Molecular target: Recombinant STAT3 protein (STAT3 (G127-I722)) (Homo sapiens, UniProt P40763)
Construct: Recombinant STAT3 protein (STAT3 (G127-I722))
Sequence (P40763 127-722): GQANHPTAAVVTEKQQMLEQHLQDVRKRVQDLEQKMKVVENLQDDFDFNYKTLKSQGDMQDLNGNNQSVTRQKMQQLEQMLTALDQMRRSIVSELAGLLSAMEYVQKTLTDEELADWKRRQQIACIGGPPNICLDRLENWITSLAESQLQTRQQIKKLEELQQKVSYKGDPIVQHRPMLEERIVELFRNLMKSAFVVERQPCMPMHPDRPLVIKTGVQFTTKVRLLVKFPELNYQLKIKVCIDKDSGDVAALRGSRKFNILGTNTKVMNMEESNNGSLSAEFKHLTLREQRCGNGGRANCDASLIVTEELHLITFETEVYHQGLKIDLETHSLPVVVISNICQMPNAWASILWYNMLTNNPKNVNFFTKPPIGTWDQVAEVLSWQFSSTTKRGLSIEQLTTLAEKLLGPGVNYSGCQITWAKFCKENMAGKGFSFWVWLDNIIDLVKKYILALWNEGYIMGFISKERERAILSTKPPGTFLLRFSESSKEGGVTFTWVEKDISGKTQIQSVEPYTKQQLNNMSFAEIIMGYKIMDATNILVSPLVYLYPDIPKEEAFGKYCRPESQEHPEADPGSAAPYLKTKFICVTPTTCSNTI
Experiment: STAT3 Fluorescence Polarization (FP) Assay
Format: binding
Conditions: STAT3 (G127-I722) 25 nM, probe 5-FAM-GpYLPQTV-NH2 2 nM, 45-minute incubation; read-out: STAT3 (FP assay IC50 class)
pIC50: −log10 of the molar value.
PARAMETER: pIC50

- MOLECULE: "O=C(N[C@H]1CCCC[C@H]2CC[C@@H](C(=O)N3C[C@@H](c4cccnc4)CC34CC4)N2C1=O)c1cc2cc([C@H](F)P(=O)(O)O)ccc2s1 (single isomer, unassigned)"
  TESTED_SYSTEM: "Recombinant STAT3 protein (STAT3 (G127-I722)) (Homo sapiens, UniProt P40763)"
  RESULT: "5.00 to 6.00"
- MOLECULE: "C[C@H]1COCCN1c1ccncc1C1CN(C(=O)[C@@H]2CC[C@@H]3CCC[C@H](NC(=O)c4cc5cc(CP(=O)(O)O)ccc5s4)C(=O)N32)C1"
  TESTED_SYSTEM: "Recombinant STAT3 protein (STAT3 (G127-I722)) (Homo sapiens, UniProt P40763)"
  RESULT: "> 7.00"
- MOLECULE: "Cc1cc(C#N)cnc1C1CN(C(=O)[C@@H]2CC[C@@H]3CCCC[C@H](NC(=O)c4cc5cc(C(F)(F)P(=O)(O)O)ccc5s4)C(=O)N32)C1"
  TESTED_SYSTEM: "Recombinant STAT3 protein (STAT3 (G127-I722)) (Homo sapiens, UniProt P40763)"
  RESULT: "> 7.00"
- MOLECULE: "COc1cc(C(F)F)ncc1C1CN(C(=O)[C@@H]2CC[C@@H]3CCC[C@H](NC(=O)c4cc5cc(CP(=O)(O)O)ccc5s4)C(=O)N32)C1"
  TESTED_SYSTEM: "Recombinant STAT3 protein (STAT3 (G127-I722)) (Homo sapiens, UniProt P40763)"
  RESULT: "5.00 to 6.00"
- MOLECULE: "Cc1cccnc1C1CN(C(=O)[C@@H]2CC[C@@H]3CCC[C@H](NC(=O)c4cc5cc(C(F)(F)P(=O)(O)O)ccc5s4)C(=O)N32)C1"
  TESTED_SYSTEM: "Recombinant STAT3 protein (STAT3 (G127-I722)) (Homo sapiens, UniProt P40763)"
  RESULT: "6.00 to 7.00"

Give recorded pIC50. O=C(N[C@H]1CCCC[C@H]2CC[C@@H](C(=O)N3CC(c4cccnc4)CC34CC4)N2C1=O)c1cc2cc([C@@H](F)P(=O)(O)O)ccc2s1 (stereo in doubt)
5.00 to 6.00

Give recorded pIC50. O=C(N[C@H]1CCCC[C@H]2CC[C@@H](C(=O)N3CCC(c4cc[nH]c(=O)c4)C3)N2C1=O)c1ccc2ccc(C(F)(F)P(=O)(O)O)cc2c1 (stereo partly drawn)
6.00 to 7.00

Give recorded pIC50. Cn1cc(F)c(N2C(=O)N(C(=O)[C@@H]3CC[C@@H]4CCCC[C@H](NC(=O)c5cc6cc(C(F)P(=O)(O)O)ccc6s5)C(=O)N43)C3(CC3)C2=O)cc1=O (stereo partly drawn)
5.00 to 6.00

Give recorded pIC50. N#C[C@H]1[C@H](c2ccccc2)CN(C(=O)[C@@H]2CC[C@@H]3CCCC[C@H](NC(=O)c4cc5cc(CP(=O)(O)O)ccc5s4)C(=O)N32)C12CC2
5.00 to 6.00

Give recorded pIC50. O=C(N[C@H]1CCCC[C@H]2CC[C@@H](C(=O)N3Cc4ccncc4C3)N2C1=O)c1cc2cc(C(F)(F)P(=O)(O)O)ccc2s1
6.00 to 7.00

Give recorded pIC50. N#CC1C(c2ccccc2)CN(C(=O)[C@@H]2CC[C@@H]3CCC[C@H](NC(=O)c4cc5cc(C(F)(F)P(=O)(O)O)ccc5s4)C(=O)N32)C12CC2 (stereo in doubt)
5.00 to 6.00

Give recorded pIC50. NC(=O)N1CC[C@@H](NC(=O)[C@@H]2CC[C@@H]3CCCC[C@H](NC(=O)c4cc5cc(C(F)P(=O)(O)O)ccc5s4)C(=O)N32)C1 (stereo partly drawn)
> 7.00

Give recorded pIC50. COC1(c2cccnc2)CN(C(=O)[C@@H]2CC[C@@H]3CCCC[C@H](NC(=O)c4cc5cc(CP(=O)(O)O)ccc5s4)C(=O)N32)C1
5.00 to 6.00

Give recorded pIC50. O=C(N[C@H]1CCC[C@H]2CC[C@@H](C(=O)N3CC(c4n[nH]cc4F)C3)N2C1=O)c1cc2cc(C(F)P(=O)(O)O)ccc2s1 (stereo partly drawn)
6.00 to 7.00

Give recorded pIC50. O=C(N[C@H]1CCC[C@H]2CC[C@@H](C(=O)N3CC(c4cnccc4OC(F)F)C3)N2C1=O)c1cc2cc(CP(=O)(O)O)ccc2s1
5.00 to 6.00

Give recorded pIC50. Cc1ccc(C#N)nc1C1CN(C(=O)[C@@H]2CC[C@@H]3CCC[C@H](NC(=O)c4cc5cc(C(F)(F)P(=O)(O)O)ccc5s4)C(=O)N32)C1
6.00 to 7.00

Give recorded pIC50. O=C(N[C@H]1CC2(CC[C@H]3CC[C@@H](C(=O)N4CC(c5cccnc5)C4)N3C1=O)CC2)c1cc2cc(CP(=O)(O)O)ccc2s1
6.00 to 7.00

Give recorded pIC50. Cn1ccc([C@@H]2CN(C(=O)[C@@H]3CC[C@@H]4CCCC[C@H](NC(=O)c5cc6cc(C(F)P(=O)(O)O)ccc6s5)C(=O)N43)C[C@H]2C#N)cc1=O (single isomer, unassigned) [Compound 227]
6.00 to 7.00

Give recorded pIC50. CN(C)c1nccc(C2CN(C(=O)[C@@H]3CC[C@@H]4CCC[C@H](NC(=O)c5cc6cc([C@@H](F)P(=O)(O)O)ccc6s5)C(=O)N43)C2)n1 (single isomer, unassigned)
6.00 to 7.00

Give recorded pIC50. O=C(N[C@H]1CCC[C@H]2CC[C@@H](C(=O)N3C(=O)N(c4cccnc4)C(=O)C34CC4)N2C1=O)c1cc2cc([C@H](F)P(=O)(O)O)ccc2s1
5.00 to 6.00

Give recorded pIC50. CC(C)OC1(c2nncn2C)CN(C(=O)[C@@H]2CC[C@@H]3CCC[C@H](NC(=O)c4cc5cc(C(F)(F)P(=O)(O)O)ccc5s4)C(=O)N32)C1
6.00 to 7.00

* * *

Item-by-item account of pIC50
Target: Recombinant STAT6 protein (STAT6 (W123-T658)) (Homo sapiens, UniProt P42226)
Construct: Recombinant STAT6 protein (STAT6 (W123-T658))
Sequence (P42226 123-658): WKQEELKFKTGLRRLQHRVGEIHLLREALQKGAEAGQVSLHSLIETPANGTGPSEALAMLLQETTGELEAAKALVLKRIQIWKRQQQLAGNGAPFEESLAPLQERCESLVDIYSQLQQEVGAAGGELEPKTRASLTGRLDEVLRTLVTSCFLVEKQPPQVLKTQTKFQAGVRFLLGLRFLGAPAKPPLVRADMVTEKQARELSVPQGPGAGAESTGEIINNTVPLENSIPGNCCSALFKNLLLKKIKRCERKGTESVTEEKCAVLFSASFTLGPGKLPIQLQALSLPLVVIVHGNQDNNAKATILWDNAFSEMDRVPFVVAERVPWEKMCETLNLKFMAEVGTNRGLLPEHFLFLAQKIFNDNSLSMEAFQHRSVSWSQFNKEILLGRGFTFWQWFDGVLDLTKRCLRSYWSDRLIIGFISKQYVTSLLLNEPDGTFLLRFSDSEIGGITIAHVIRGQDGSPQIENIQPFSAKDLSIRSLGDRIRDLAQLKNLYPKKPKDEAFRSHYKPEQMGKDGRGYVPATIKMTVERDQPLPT
Assay: STAT6 Fluorescence Polarization (FP) Assay
Format: binding
Details: STAT6 250 nM, probe 5-FAM-Ap[…]-NH2 2 nM, 45-minute incubation; read-out: STAT6 (FP assay IC50)
pIC50: −log10 of the molar value.

Give recorded pIC50. N#C[C@@H]1CN(C(=O)[C@@H]2CCC[C@@H]3CCCC[C@H](NC(=O)c4cc5cc(C(F)(F)P(=O)(O)O)ccc5s4)C(=O)N32)CC1c1ccccc1 (mixture of isomers)
≥ 6.52

Give recorded pIC50. O=C(N[C@H]1CCCC[C@H]2CC[C@@H](C(=O)Nc3ccc4c(c3)CCS4(=O)=O)N2C1=O)c1cc2cc(C(F)(F)P(=O)(O)O)ccc2s1
5.52 to 6.52

Give recorded pIC50. O=C(N[C@H]1CCCC[C@H]2CCC[C@@H](C(=O)N3CC(n4ccnc4)C3)N2C1=O)c1cc2cc(C(F)(F)P(=O)(O)O)ccc2s1
< 4.52

Give recorded pIC50. CCO[C@H]1CC[C@H]2CC[C@@H](C(=O)N3CC(C(=O)N4CCOCC4)C3)N2C(=O)[C@@H](NC(=O)c2cc3cc(C(F)(F)P(=O)(O)O)ccc3s2)C1
4.52 to 5.52

Give recorded pIC50. O=C(N[C@H]1C[C@@H](OCc2ccccc2)CC[C@H]2CC[C@@H](C(=O)N3CC(C(=O)N4CCOCC4)C3)N2C1=O)c1cc2cc(C(F)(F)P(=O)(O)O)ccc2s1
4.52 to 5.52

* * *

Item-by-item account of IC50
Target: Recombinant STAT6 protein (STAT6 (W123-T658)) (Homo sapiens, UniProt P42226)
Construct: Recombinant STAT6 protein (STAT6 (W123-T658))
Test: STAT6 Fluorescence Polarization (FP) Assay
Format: binding
Conditions: STAT6 250 nM, probe 5-FAM-Ap[…]-NH2 2 nM, 45-minute incubation; read-out: STAT6 (FP assay IC50)

- MOLECULE: "N#C[C@@H]1CN(C(=O)[C@@H]2C[C@@H](O)[C@@H]3CCCCC[C@H](NC(=O)c4ccc5ccc(C(F)(F)P(=O)(O)O)cc5c4)C(=O)N23)C[C@H]1c1cc[nH]c(=O)c1 (single isomer, unassigned) [Compound 106]"
  PARAMETER: "IC50"
  RESULT: "≤ 0.3 µM"
- MOLECULE: "O=C(N[C@H]1C[C@@H](O)CC[C@H]2CC[C@@H](C(=O)N3CC(C(=O)N4CCOCC4)C3)N2C1=O)c1cc2cc(C(F)(F)P(=O)(O)O)ccc2s1 [Compound 4]"
  PARAMETER: "IC50"
  RESULT: "3 to 30 µM"
- MOLECULE: "O=C(N[C@H]1CCCC[C@H]2CC[C@@H](C(=O)N3CC(c4cccnc4)C3)N2C1=O)c1cc2cc(C(F)(F)P(=O)(O)O)ccc2s1 [Compound 117]"
  PARAMETER: "IC50"
  RESULT: "3 to 30 µM"
- MOLECULE: "O=C(N[C@H]1CCC[C@H]2CC[C@@H](C(=O)N3CC(c4cccnc4)C3)N2C1=O)c1cc2cc(C(F)(F)P(=O)(O)O)ccc2s1 [Compound 33]"
  PARAMETER: "IC50"
  RESULT: "0.3 to 3 µM"
- MOLECULE: "CS(=N)(=O)CC1CN(C(=O)[C@@H]2CC[C@@H]3CCC[C@H](NC(=O)c4cc5cc(C(F)(F)P(=O)(O)O)ccc5s4)C(=O)N32)C1 (stereo partly drawn) [Compound 32]"
  PARAMETER: "IC50"
  RESULT: "3 to 30 µM"
- MOLECULE: "C[C@@H]1C[C@H](NC(=O)c2cc3cc(C(F)(F)P(=O)(O)O)ccc3s2)C(=O)N2[C@H](CC[C@H]2C(=O)N2CC[C@@H](c3ccccc3)C2)C[C@H]1O [Compound 100]"
  PARAMETER: "IC50"
  RESULT: "≤ 0.3 µM"
- MOLECULE: "O=C(N[C@H]1CCCC[C@H]2CC[C@@H](C(=O)Nc3ccc4nccc(Cl)c4c3)N2C1=O)c1cc2cc(C(F)(F)P(=O)(O)O)ccc2s1 [Compound 55]"
  PARAMETER: "IC50"
  RESULT: "0.3 to 3 µM"
- MOLECULE: "N=S1(=O)CCC(C2CN(C(=O)[C@@H]3CC[C@@H]4CCCC[C@H](NC(=O)c5cc6cc(C(F)(F)P(=O)(O)O)ccc6s5)C(=O)N43)C2)CC1 (stereo partly drawn) [Compound 61]"
  PARAMETER: "IC50"
  RESULT: "0.3 to 3 µM"
- MOLECULE: "N#C[C@@H]1CN(C(=O)[C@@H]2CC[C@@H]3CCCC[C@H](NC(=O)c4cc5cc(C(F)(F)P(=O)(O)O)ccc5s4)C(=O)N32)C[C@H]1c1ccccc1 (single isomer, unassigned) [Compound 22]"
  PARAMETER: "IC50"
  RESULT: "≤ 0.3 µM"
- MOLECULE: "CS(=N)(=O)CC1CN(C(=O)[C@@H]2CC[C@@H]3CCCC[C@H](NC(=O)c4cc5cc(C(F)(F)P(=O)(O)O)ccc5s4)C(=O)N32)C1 (stereo partly drawn) [Compound 66]"
  PARAMETER: "IC50"
  RESULT: "3 to 30 µM"

Okay, next one:
Give recorded IC50. O=C(N[C@H]1CCC[C@H]2CC[C@@H](C(=O)N3CC(c4nc5ccccc5[nH]4)C3)N2C1=O)c1cc2cc(C(F)(F)P(=O)(O)O)ccc2s1 [Compound 43]
0.3 to 3 µM
